Where do these numbers come from? They come from ChEMBL document CHEMBL5316301.

Assay: Clearance in Sprague-Dawley rat at 5 mg/kg, iv
Format: ADME, organism-based
Details: in vivo
Measured attribute: clearance (mL/min/kg)
All answers are understood in mL/min/kg, so give the number only.

Note down clearance recorded for O=C(NCCCCCCNc1nonc1/C(=N/O)Nc1ccc(F)c(Br)c1)c1ccc2nccn2c1 106

====

Molecular target: Indoleamine 2,3-dioxygenase 1 (Homo sapiens)
Sequence (P14902 whole entry): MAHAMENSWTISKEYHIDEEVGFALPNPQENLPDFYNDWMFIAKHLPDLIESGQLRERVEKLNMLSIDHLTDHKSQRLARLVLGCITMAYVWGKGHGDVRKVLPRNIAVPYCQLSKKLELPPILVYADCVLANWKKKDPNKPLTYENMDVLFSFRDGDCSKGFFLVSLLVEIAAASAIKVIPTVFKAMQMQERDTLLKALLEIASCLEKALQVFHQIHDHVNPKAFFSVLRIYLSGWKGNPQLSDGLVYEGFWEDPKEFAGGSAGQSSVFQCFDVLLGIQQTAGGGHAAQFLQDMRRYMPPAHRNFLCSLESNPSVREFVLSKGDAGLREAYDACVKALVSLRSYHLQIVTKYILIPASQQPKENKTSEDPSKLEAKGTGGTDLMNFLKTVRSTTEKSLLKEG
Test: Inhibition of human recombinant IDO1 in human HeLa cells assessed as reduction in N-formylkynurenine formation using L-tryptophan as substrate preincubated for 24 hrs followed by substrate addition and measured after 30 mins
Assay type: cell-based
Measured attribute: IC50 (nM)
Response body: numeric value in nM, unit text excluded.

Look over these answered cases.
smi=O=C(CCNc1nonc1/C(=N/O)Nc1ccc(F)c(Br)c1)Nc1ccc(CNC(=O)c2ccc3nccn3c2)cc1 numeric_value=161
smi=O=C(NCCCCNc1nonc1/C(=N/O)Nc1ccc(F)c(Br)c1)c1ccc(CNC(=O)c2ccc3nccn3c2)cc1 numeric_value=677
smi=O=C(NCCCCNc1nonc1/C(=N/O)Nc1ccc(F)c(Br)c1)c1ccc2nccn2c1 numeric_value=520
smi=O=C(NCCCCCCNc1nonc1/C(=N/O)Nc1ccc(F)c(Br)c1)c1ccc2nccn2c1 numeric_value=160
smi=O=C(NCCCCCNc1nonc1/C(=N/O)Nc1ccc(F)c(Br)c1)c1ccc2nccn2c1 numeric_value=670
smi=O=C(CCCNc1nonc1/C(=N/O)Nc1ccc(F)c(Br)c1)Nc1ccc(CNC(=O)c2ccc3nccn3c2)cc1 numeric_value=663

Kindly review the next molecule as well.
Indicate the recorded IC50 value for this molecule: O=C(CCCCNc1nonc1/C(=N/O)Nc1ccc(F)c(Br)c1)Nc1ccc(CNC(=O)c2ccc3nccn3c2)cc1 649
